# System: panel of 168 GPCRs
# ASSAY_EXPLANATION: PathHunter β-arrestin cell-based assays, antagonist primary screen
# CONDITION_SUMMARY: 20 μM; significant = ≥80% inhibition
REPORTED_ENDPOINT: antagonistic activity in the primary screen

COC(=O)[C@@H]1[C@H]2C[C@@H]3OCc4ccccc4-n4c3c(c3ccccc34)CCN(C#N)C[C@@H]2CC[C@@H]1O | inactive
COC(=O)[C@@H]1[C@H]2C[C@@H]3N(CC[C@@]34C(=O)N(c3cncc(OC)n3)c3ccccc34)C[C@@H]2CC[C@@H]1O | inactive
COC(=O)[C@@H]1[C@H]2C[C@@H]([C@@]3(CCn4cc(CCCCO)nn4)C(=O)Nc4ccccc43)N(C#N)C[C@@H]2CC[C@@H]1O | inactive
